Cited source for all entries: patent US20110052582A1

# experimental target: T1, Soluble CDCP1 extracellular domain (CDCP1-ECD) (SEQ ID NO:30) fused to Streptavidin Binding Protein (SBP) (human, UniProt Q9H5V8 30-663)
# T1 construct: also called SBP-CDCP1-ECD
# T1 sequence: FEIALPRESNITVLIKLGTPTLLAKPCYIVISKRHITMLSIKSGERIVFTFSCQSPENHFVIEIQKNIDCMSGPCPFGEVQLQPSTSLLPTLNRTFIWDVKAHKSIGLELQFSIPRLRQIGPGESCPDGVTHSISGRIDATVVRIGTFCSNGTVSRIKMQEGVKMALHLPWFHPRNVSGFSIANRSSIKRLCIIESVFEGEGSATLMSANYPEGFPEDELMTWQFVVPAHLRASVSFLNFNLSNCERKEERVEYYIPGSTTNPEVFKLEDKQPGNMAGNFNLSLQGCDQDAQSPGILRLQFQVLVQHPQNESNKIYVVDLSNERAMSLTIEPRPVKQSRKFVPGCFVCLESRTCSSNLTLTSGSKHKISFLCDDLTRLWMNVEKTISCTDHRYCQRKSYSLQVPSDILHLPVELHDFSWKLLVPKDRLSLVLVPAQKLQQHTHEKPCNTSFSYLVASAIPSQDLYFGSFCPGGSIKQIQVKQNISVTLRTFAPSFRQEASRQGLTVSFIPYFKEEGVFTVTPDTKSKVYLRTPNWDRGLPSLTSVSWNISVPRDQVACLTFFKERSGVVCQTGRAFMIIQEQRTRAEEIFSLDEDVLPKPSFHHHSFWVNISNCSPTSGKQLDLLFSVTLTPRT
# protocol summary: ELISA on captured SBP-CDCP1-ECD, ratio relative to chimeric CUB4 (chHC4)
readout kind: relative binding ratio
Give a plain numeric answer without units written out.

INSERT INTO results (binder, readout_kind, endpoint_result) VALUES
  ('hHC4-04 / hLC4-b (antibody, V domains shown) VH: EVQLLESGGGLVQPGGSLRLSCAASGFTFNSYGMSWVRQAPGKGLEWVSTISSGGSYTYYPDSVKGRFTISRDNSKNTLYLQMNSLRAEDTAVYYCARHPDYDGVWFAYWGQGTLVTVSS VL: EIVLTQSPATLSLSPGERATLSCSVSSSVFYVHWYQQKPGQAPRLLIYDTSKLASGIPARFSGSGSGTDYTLTISSLEPEDFAVYYCQQWNSNPPTFGGGTKVEIK', 'relative binding ratio', 0.36),
  ('hHC4-K2 / hLC4-a (antibody, V domains shown) VH: EVQLVESGGGLVKPGGSLRLSCAASGFTFNSYGMSWVRQAPGKGLEWVSSISSGGSYTYYADSVKGRFTISRDNAKNSLYLQMNSLRAEDTAVYYCARHPDYDGVWFAYWGQGTLVTVSS VL: EIVLTQSPATLSLSPGERATLSCSVSSSVFYVHWYQQKPGQAPRLLIYDTSKLASGIPARFSGSGSGTDFTLTISSLEPEDFAVYYCQQWNSNPPTFGGGTKVEIK', 'relative binding ratio', 0.1);

Okay, next one:
Query (binder): hHC4-c / hLC4-b (antibody, V domains shown) VH: EVQLVESGGGLVQPGGSLRLSCAASGFTFNSYGMSWVRQAPGKGLEWVATISSGGSYTYYPDSVKGRFTISRDNAKNSLYLQMNSLRAEDTAVYYCARHPDYDGVWFAYWGQGTLVTVSS VL: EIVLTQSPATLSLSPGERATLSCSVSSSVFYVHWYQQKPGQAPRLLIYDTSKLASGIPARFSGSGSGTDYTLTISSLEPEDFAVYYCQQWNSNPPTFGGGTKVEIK ; field requested: relative binding ratio
0.28
